Experiment: S. cerevisiae growth modulation with rapamycin, primary screen, strain BY4716, OD600, 96 h (AID 1091); further: test concentration not given here
Conditions: higher = more signal, called active from +8 up or from −8 down
Measurement Name: z-score
I only need the number, thanks.

Molecule	z-score
COCCCN1C(=O)[C@@]2(Cc3ccccc31)c1ccccc1C(=O)N(Cc1ccccc1C(F)(F)F)[C@H]2c1ccc(CO)cc1	-1.41
[N-]=[N+]=NCc1ccccc1C[C@@]1(C(=O)NCC(O)CO)N=C(c2ccc(OCCCO)cc2)O[C@@H]1c1ccccc1N=[N+]=[N-] (stereo partly specified)	1.99
O=C1OCCC/C=C\[C@H]2OC34C=CCN(c5ccc6ccccc6c5)C(=O)[C@H]3N(CCCCCCO)C(=O)[C@@H]4C12 (stereo partly specified)	-0.533
NC(=O)[C@@H]1[C@H]2C(=O)O[C@H](c3ccccc3)[C@H](c3ccccc3)N2[C@H](c2ccc(O)cc2)[C@@]12C(=O)Nc1ccc(C#CC3(O)CCCCCC3)cc12	0.639
CCOC1=C2C(CN(S(=O)(=O)c3ccc(C)cc3)C2c2ccc(C)cc2)C2C(=O)N(c3ccccc3)C(=O)C2C1 (stereo unspecified)	0.852

Continue with the next molecule.
Reported z-score of COCCOC(=O)N1C(=O)[C@@]2(c3cc(C#CC4=CCCCC4)ccc31)[C@H](c1ccc(O)cc1)N1[C@H](c3ccccc3)[C@H](c3ccccc3)OC(=O)[C@H]1[C@@H]2C(N)=O : 0.918

====

Biological target: NADPH oxidase 4 (Homo sapiens) (UniProt Q9NPH5)
Sequence (Q9NPH5 whole entry, looked up): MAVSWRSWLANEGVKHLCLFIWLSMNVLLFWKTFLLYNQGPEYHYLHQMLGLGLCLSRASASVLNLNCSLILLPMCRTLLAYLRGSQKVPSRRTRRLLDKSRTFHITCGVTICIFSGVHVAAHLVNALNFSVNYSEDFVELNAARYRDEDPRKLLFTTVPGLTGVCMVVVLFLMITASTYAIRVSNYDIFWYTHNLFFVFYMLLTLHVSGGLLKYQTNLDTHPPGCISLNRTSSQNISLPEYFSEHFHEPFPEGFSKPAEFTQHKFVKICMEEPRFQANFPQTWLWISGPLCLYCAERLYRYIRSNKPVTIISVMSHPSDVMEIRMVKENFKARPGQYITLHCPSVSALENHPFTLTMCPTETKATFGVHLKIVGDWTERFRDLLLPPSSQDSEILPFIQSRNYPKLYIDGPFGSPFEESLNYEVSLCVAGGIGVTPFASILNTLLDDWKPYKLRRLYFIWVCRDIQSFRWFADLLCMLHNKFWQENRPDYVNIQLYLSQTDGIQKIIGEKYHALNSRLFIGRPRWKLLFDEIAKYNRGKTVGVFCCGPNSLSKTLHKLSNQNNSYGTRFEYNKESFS
Test: NOX4-dependent H2O2 signal modulators, primary screen, NOX inhibitor project, cell-based, HEK293-NOX4, tetracycline-induced, Amplex Red fluorescence (AID 1160)
Settings: 45 min, higher = more signal, called active from +8 up or from −8 down
Label label 0 if z-score falls below 0.3; label label 1 in every other case.

Task: Hi team, for COCC(=C=CC[C@@H](O)c1ccccc1OCCO)C[C@@H](O)c1cc(Cl)cc(Cl)c1O , is the recorded z-score at or above 0.3?
Result: label 0

Task: Hi team, for C=CCC(OC(C)=O)[C@@H]1[C@@H](N(Cc2cccc3ccccc23)C(=O)c2ccc(-c3ccccc3)cc2)c2cc(OCCCO)ccc2N1C(=O)Cc1ccc(OC)cc1 (stereo partly specified) , is the recorded z-score at or above 0.3?
Result: label 1

====

Assay: P. aeruginosa biofilm formation inhibitors, primary screen, strain PAO1, LB-PBS medium, absorbance 600 nm (AID 1176); further: test concentration not given here
Settings: P. aeruginosa PAO1 growth/biofilm, A600, 12 h; higher = more signal
Binning of z-score into classes: lowest (below 0.2), middle (0.2 to below 0.9), highest (0.9 or more)

Compound	Category Label
COC(=O)[C@@]1(Cc2ccccc2)[C@H]2c3cc(C(=O)N(C)C)n(CCSCCO)c3C[C@H]2CN1C(=O)c1ccccc1	lowest
O=C1OCCC/C=C\[C@H]2OC34C=CCN(c5ccc6ccccc6c5)C(=O)[C@H]3N(CCCCCCO)C(=O)[C@@H]4C12 (some centres not stated)	middle
NCCCCCNC(=O)[C@@H]1C[C@@H]2C(=O)N[C@@H](Cc3ccccc3)C(=O)N2[C@@H]1c1cccc(OCCO)c1	lowest
O=C1C2C=CC(C(O)C3CCCCC3)N(Nc3ccc([N+](=O)[O-])cc3)C2C(=O)N1c1ccccc1 (configuration not stated)	middle
CC(C)(C)C(=O)N[C@@H](c1ccc(Cl)cc1)[C@]1(C)C[C@H]1C1CCCCC1	highest
COC(=O)[C@@]1(Cc2ccccc2)[C@H]2c3cc(C(=O)N4CCCC4)n(Cc4cccc5ccccc45)c3C[C@H]2CN1C(=O)c1ccccc1	lowest
COc1ccc(CCN2C(=O)[C@@]3(c4ccc([N+](=O)[O-])cc4)CC(=O)N(C4CCCCC4)[C@@H]3c3ccc(CO)cc32)cc1	highest
COC(=O)C(CC#Cc1ccc2c(c1)[C@]1(C(=O)N2)[C@H](C(=O)O)[C@H]2C(=O)O[C@H](c3ccccc3)[C@H](c3ccccc3)N2[C@@H]1c1ccc(O)cc1)C(=O)OC	highest

Task: Looking at C=C/C=C/[C@H]1C(=C)CN([C@@H](Cc2ccccc2)C(=O)OC)[C@@H]1[C@H](O)Cc1ccccc1 , which class would you pick?
Result: middle

Task: Looking at C=CCNC(=O)[C@H]1[C@@H]2C(=O)O[C@@H](c3ccccc3)[C@@H](c3ccccc3)N2[C@@H](c2ccc(OCCO)cc2)[C@]12C(=O)N(C(=O)OCCOC)c1ccccc12 , which class would you pick?
Result: highest

Task: Looking at CN1C(=O)C2C=CC(C(O)c3ccc(I)cc3)N(N3CCCCC3)C2C1=O (configuration not stated) , which class would you pick?
Result: middle

Task: Looking at O=C1[C@H]2C=C(Br)[C@H](C[C@@H]2c2ccccc2)[C@@]12CO2 , which class would you pick?
Result: lowest

====

Entries and their z-score
Target: Homeobox protein Hox-A13 (Mus musculus) (UniProt Q62424)
Sequence (Q62424 whole entry, looked up): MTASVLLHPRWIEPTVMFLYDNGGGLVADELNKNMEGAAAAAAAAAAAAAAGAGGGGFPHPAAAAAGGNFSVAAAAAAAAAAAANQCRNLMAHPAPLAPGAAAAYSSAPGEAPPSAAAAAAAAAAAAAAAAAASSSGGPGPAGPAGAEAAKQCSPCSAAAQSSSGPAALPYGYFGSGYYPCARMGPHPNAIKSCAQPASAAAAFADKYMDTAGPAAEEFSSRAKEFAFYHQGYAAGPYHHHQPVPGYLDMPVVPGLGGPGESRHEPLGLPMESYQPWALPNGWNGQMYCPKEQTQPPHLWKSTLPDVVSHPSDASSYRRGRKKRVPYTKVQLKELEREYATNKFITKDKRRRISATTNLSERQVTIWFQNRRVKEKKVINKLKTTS
Test: inhibitors of HoxA13-DNA binding, primary screen, biochemical, fluorescence polarization, labeled oligonucleotide (AID 1185)
Details: 15 min, higher = more signal, called active from +8 up or from −8 down
I only need the number, thanks.

Some solved cases for reference:
Molecule	z-score
CCCCCC1=C2CNC(CCC)(C(=O)OC)C=C2C(C)C1=O (stereo not drawn)	-6.92
CCCC=C(CCC)[C@@H](NC(=O)Oc1ccc(F)cc1)c1ccc(C(=O)OC)cc1	-0.734

Reported z-score of COc1ccc(CCNC(=O)[C@@]2(Sc3ccc(C)cc3)CC(=O)N(C3CCCCC3)[C@@H]2c2ccc(CO)cc2I)cc1 : -1.88

Reported z-score of O=C1OCCC/C=C\[C@H]2OC34C=CCN(c5ccc6ccccc6c5)C(=O)[C@H]3N(CCCCCCO)C(=O)[C@@H]4C12 (stereo partly drawn) : -5.08

Reported z-score of COC(=O)c1c(CC[C@@H](CO)NC(=O)N[C@@H](C)Cn2cc(C3(O)CCCCC3)nn2)oc(C(C)=O)c1C(=O)OC : -3.05

Reported z-score of COCCOC(=O)N1C(=O)[C@@]2(c3cc(C#Cc4ccc(OC)cc4)ccc31)[C@H](c1ccccc1OCCO)N1[C@H](c3ccccc3)[C@H](c3ccccc3)OC(=O)[C@H]1[C@@H]2C(=O)N1CCN(c2ncccn2)CC1 : 0.484

Reported z-score of C=CCNC(=O)[C@H]1[C@@H]2C(=O)O[C@@H](c3ccccc3)[C@@H](c3ccccc3)N2[C@@H](c2ccc(O)cc2)[C@]12C(=O)N(C(=O)OCCOC)c1ccc(C#CCNC(N)=O)cc12 : -3.07

Reported z-score of COCCCNC(=O)[C@@]1(Cc2ccccc2N=[N+]=[N-])N=C(c2ccc(OCCCO)cc2)O[C@H]1c1ccccc1N=[N+]=[N-] : -2.81

====

Entries and their composite z-score
Molecular target: Dihydroorotate dehydrogenase (quinone), mitochondrial (Plasmodium falciparum (isolate 3D7)) (UniProt Q08210)
Sequence (Q08210 whole entry, looked up): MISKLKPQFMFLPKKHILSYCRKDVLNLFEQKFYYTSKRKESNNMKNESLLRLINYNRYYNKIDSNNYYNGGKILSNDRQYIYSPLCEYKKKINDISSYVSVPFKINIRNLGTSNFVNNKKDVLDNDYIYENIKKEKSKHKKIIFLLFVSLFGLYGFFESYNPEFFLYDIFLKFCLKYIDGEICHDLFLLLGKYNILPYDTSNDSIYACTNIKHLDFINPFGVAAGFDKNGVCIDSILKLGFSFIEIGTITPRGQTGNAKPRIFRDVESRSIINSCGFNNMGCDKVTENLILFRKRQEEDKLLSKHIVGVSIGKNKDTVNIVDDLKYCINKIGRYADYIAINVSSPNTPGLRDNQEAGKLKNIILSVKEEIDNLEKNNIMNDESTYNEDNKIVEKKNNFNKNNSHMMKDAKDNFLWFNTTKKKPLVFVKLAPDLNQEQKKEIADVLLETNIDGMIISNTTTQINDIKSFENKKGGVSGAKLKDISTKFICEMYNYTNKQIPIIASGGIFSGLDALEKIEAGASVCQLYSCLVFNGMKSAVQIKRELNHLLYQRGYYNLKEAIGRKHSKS
Test: PfDHODH enzyme inhibitors, primary screen, biochemical, C-terminal His tag, absorbance 600 nm (AID 1175);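 further: recombinant parasite enzyme with a five histidine tag at its C terminus; test concentration not given here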
Conditions: DCIP absorbance 600 nm, higher = more signal, called active from +8 up or from −8 down
I only need the number, thanks.

Some solved cases for reference:
Compound	Measured Number
COc1ccc([Si](C)(C)[C@H]2[C@H](CCO)O[C@@]3(C(=O)N(C)c4c(Br)cc(C)cc43)[C@@H]2C)cc1	1.13
CN1C(=O)C2C=CC(C(O)c3ccc(-c4ccccc4)s3)N(N(c3ccccc3)c3ccccc3)C2C1=O (stereo unspecified)	-0.585
O=C1OCCC/C=C\[C@H]2OC34C=CCN(Cn5nnc6ccccc65)C(=O)[C@H]3N(CCCCCCO)C(=O)[C@@H]4C12 (stereo partly specified)	-0.332
CS(=O)(=O)CCOC(=O)C1=CC(CCCO)=CC(c2ccc(CN3CCCC3)cc2)N(Cc2cc3c(cc2Br)OCO3)C=C1C(=O)OCCS(C)(=O)=O (stereo unspecified)	-4.55
O=C(c1ccccc1)N1Cc2ccccc2[C@@H]2OC(c3ccc(OCCCO)cc3)=N[C@]2(Cc2ccccc2)C1=O	0.369

Continue with the next compound.
Reported composite z-score of COC(=O)c1c(CC[C@@H](CO)NC(=O)N2CCC[C@H]2Cn2cc(-c3ccccn3)nn2)oc(C(C)=O)c1C(=O)OC : -0.492

====

Assay: basal RPMI8226 viability, no added stimulus, profiling panel, cell-based, calcein-AM fluorescence, 48 h, PK04 Diversity Set (AID 1166);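 further: cells grown under basal conditions without added stimulus; test concentration not given here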
Details: RPMI8226 myeloma viability, higher = more signal
Binning of z-score into classes: band A: < -0.7; band B: ≥ -0.7 and < 0.3; band C: ≥ 0.3

Worked examples follow.
Compound	Category Label
C=CCOC(=O)[C@@H]1[C@H]2C(=O)O[C@H](c3ccccc3)[C@H](c3ccccc3)N2[C@H](c2ccc(OCCOC(=O)[C@@H]3C[C@@H]4C(=O)N5CCC[C@H]5C(=O)N4[C@@H]3c3ccc(O)cc3)cc2)[C@@]12C(=O)Nc1ccc(I)cc12	band B
C=CCN1C(=O)[C@]2(O[C@H](CCO)[C@@H]([Si](C)(C)c3ccc(OC)cc3)[C@@H]2C)c2cc(N3CCCCC3=O)ccc21	band A
COCCOC(=O)N1C(=O)[C@@]2(c3cc(C#Cc4ccc(OC)cc4)ccc31)[C@H](c1ccccc1OCCO)N1[C@H](c3ccccc3)[C@H](c3ccccc3)OC(=O)[C@H]1[C@@H]2C(=O)N1CCN(c2ncccn2)CC1	band B
COC(=O)C(CC#Cc1ccc2c(c1)[C@]1(C(=O)N2)[C@H](c2ccc(O)cc2)N2[C@H](c3ccccc3)[C@H](c3ccccc3)OC(=O)[C@H]2[C@@H]1C(=O)Nc1nc2ccccc2s1)C(=O)OC	band A
CS(=O)(=O)CCOC(=O)C1=CC(CCCO)=CC(c2ccc(CN3CCCC3)cc2)N(Cc2cc3c(cc2Br)OCO3)C=C1C(=O)OCCS(C)(=O)=O (centres undefined)	band B
CCCCCN1CC=CC23O[C@@H]4/C=C\CCCOC(=O)C4[C@H]2C(=O)N(CCCO)[C@@H]3C1=O (some centres undefined)	band C

Task: Looking at O=C(NCC(F)(F)F)[C@@H]1c2ccccc2C(=O)N(C2CCCCC2)[C@H]1c1ccc(CO)cc1 , which class would you pick?
Result: band C

Task: Looking at CCCCCCC#C[Si](O[C@H](c1ccccc1)c1cn([C@H](CO)Cc2ccccc2)nn1)(C(C)C)C(C)C , which class would you pick?
Result: band B

Task: Looking at COCCOC(=O)N1C(=O)[C@@]2(c3ccccc31)[C@H](c1ccc(O)cc1)N1[C@H](c3ccccc3)[C@H](c3ccccc3)OC(=O)[C@H]1[C@@H]2C(=O)NC[C@H](O)c1ccccc1 , which class would you pick?
Result: band A

Task: Looking at CC(C)[C@@H](CO)NC(=O)[C@H]1[C@@H](c2ccccc2)N(c2ccccc2)O[C@@H]1C , which class would you pick?
Result: band B

Task: Looking at NCCCCCNC(=O)[C@@H]1C[C@@H]2C(=O)NCC(=O)N2[C@@H]1c1ccc(O)cc1 , which class would you pick?
Result: band C

Task: Looking at CN1C(=O)C2C=CC(C(O)C3CC=CCC3)N(NC(=O)OC(C)(C)C)C2C1=O (centres undefined) , which class would you pick?
Result: band B

Task: Looking at COc1ccc(C#Cc2ccc3c(c2)[C@]2(C(=O)N3)[C@H](c3ccccc3OCCO)N3[C@H](c4ccccc4)[C@H](c4ccccc4)OC(=O)[C@H]3[C@@H]2C(=O)O)cc1 , which class would you pick?
Result: band A

Task: Looking at C=CCOC(=O)[C@H]1[C@@H]2C(=O)O[C@@H](c3ccccc3)[C@@H](c3ccccc3)N2[C@@H](c2ccc(OCCOC(=O)[C@@H]3C[C@@H]4C(=O)N5CCC[C@H]5C(=O)N4[C@@H]3c3cccc(OCCO)c3)cc2)[C@]12C(=O)Nc1ccccc12 , which class would you pick?
Result: band B

Task: Looking at CCOC(=O)C[C@H]1[C@H](OC(=O)Cc2ccc3c(c2)OCO3)[C@@H](NC(=O)c2ccc(-c3ccccc3)cc2)c2cc(OCCCO)ccc2N1C(=O)Cc1ccc(OC)cc1 , which class would you pick?
Result: band C

Task: Looking at CN1C2C=C(CCCO)C(C3C(=O)N(C(N)=O)C(=O)C32)C1c1ccc(CN2CCCC2)cc1 (centres undefined) , which class would you pick?
Result: band A

Task: Looking at COC(=O)[C@@]1(Cc2ccccc2)[C@H]2c3cc(C(=O)N(C)C)n(CCSCCO)c3C[C@H]2CN1C(=O)c1ccccc1 , which class would you pick?
Result: band A
